- procedureDetails: Cytotoxicity against mouse L929 cells assessed as survival at 9 uM after 20 hrs by MTT method relative to control
- Type: cell-based
- statedConditions: read-out: Survival

>  <compound>
CN(C)c1ccc2nc3ccc(N(C)C)cc3[s+]c2c1 [METHYLENE BLUE ANHYDROUS]

>  <viability at 20 h, 9 µM, %>
102

$$$$

---

- procedureDetails: Cytotoxicity against mouse L929 cells assessed as survival at 10 uM after 20 hrs by MTT method relative to control
- Format: cell-based
- statedConditions: read-out: Survival
reportedMetric: viability at 20 h, 10 µM (%)

>  <compound>
C=CCc1ccc(O)c(O)c1 [HYDROXYCHAVICOL]

>  <measValue>
96.5

$$$$

---

- procedureDetails: Cytotoxicity against mouse L929 cells assessed as survival at 5 uM after 20 hrs by MTT method relative to control
- Type: cell-based
- statedConditions: read-out: Survival

>  <compound>
C=CCc1ccc(O)c(O)c1 [HYDROXYCHAVICOL]

>  <viability at 20 h, 5 µM [%]>
96.2

$$$$

---

- procedureDetails: Cytotoxicity against mouse L929 cells assessed as survival at 20 uM after 20 hrs by MTT method relative to control
- Type: cell-based
- statedConditions: read-out: Survival
reportedMetric: viability at 20 h, 20 µM

>  <compound>
C=CCc1ccc(O)c(O)c1 [HYDROXYCHAVICOL]

>  <measValue>
75.7%

$$$$
